Source: the supplement of paper PMC7125110

Hi there, I'd appreciate the recorded self-cleavage kobs at 2500 uM GlcN6P for every entry that follows.
B1: glmS ribozyme (parent)
chain: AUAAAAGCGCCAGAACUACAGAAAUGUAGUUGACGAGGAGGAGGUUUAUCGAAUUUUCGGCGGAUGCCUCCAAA

variants of: B1; experiment: self-cleavage kobs at 2500 uM GlcN6P; higher = faster cleavage; RNA array; details: with glucosamine-6-phosphate
Fewer inactive variants are shown than the library holds.

Recorded self-cleavage kobs at 2500 uM GlcN6P for A6U C11G U46G C68A , please?
< 1e-05 s⁻¹

Recorded self-cleavage kobs at 2500 uM GlcN6P for G43A C50G U69G , please?
< 1e-05 s⁻¹

Recorded self-cleavage kobs at 2500 uM GlcN6P for A39U U65C C70G , please?
0.000144 s⁻¹

Recorded self-cleavage kobs at 2500 uM GlcN6P for G29U U30C , please?
< 1e-05 s⁻¹

Recorded self-cleavage kobs at 2500 uM GlcN6P for G9C A52U C58U , please?
< 1e-05 s⁻¹

Recorded self-cleavage kobs at 2500 uM GlcN6P for G29A A39G U54A , please?
0.00457 s⁻¹

Recorded self-cleavage kobs at 2500 uM GlcN6P for G9U G37C , please?
< 1e-05 s⁻¹

Recorded self-cleavage kobs at 2500 uM GlcN6P for G43A U54A , please?
3.85e-05 s⁻¹

Recorded self-cleavage kobs at 2500 uM GlcN6P for G44U A48G , please?
< 1e-05 s⁻¹

Recorded self-cleavage kobs at 2500 uM GlcN6P for G35U G62C , please?
< 1e-05 s⁻¹

Recorded self-cleavage kobs at 2500 uM GlcN6P for G32U U55G C70U , please?
0.000141 s⁻¹

Recorded self-cleavage kobs at 2500 uM GlcN6P for A39U U69G , please?
4.76e-05 s⁻¹

Recorded self-cleavage kobs at 2500 uM GlcN6P for A33U G35C U57C U65C , please?
< 1e-05 s⁻¹

Recorded self-cleavage kobs at 2500 uM GlcN6P for G35C G38A , please?
< 1e-05 s⁻¹

Recorded self-cleavage kobs at 2500 uM GlcN6P for U30A U31A G40A U57G , please?
< 1e-05 s⁻¹

Recorded self-cleavage kobs at 2500 uM GlcN6P for G41U G43C G51U C68G , please?
< 1e-05 s⁻¹

Recorded self-cleavage kobs at 2500 uM GlcN6P for C8A C10A G44U U46A C67A , please?
< 1e-05 s⁻¹

Recorded self-cleavage kobs at 2500 uM GlcN6P for C10A U54C , please?
< 1e-05 s⁻¹

Recorded self-cleavage kobs at 2500 uM GlcN6P for C8G U57G C70U , please?
< 1e-05 s⁻¹

Recorded self-cleavage kobs at 2500 uM GlcN6P for A15U C34U C50G , please?
0.000132 s⁻¹

Recorded self-cleavage kobs at 2500 uM GlcN6P for G29C U69C , please?
0.000164 s⁻¹

Recorded self-cleavage kobs at 2500 uM GlcN6P for A42U A53G C61G , please?
< 1e-05 s⁻¹
